Data provenance: patent US20170212130A1

Biological target: T1, GFP-His6 (eGFP) (Aequorea victoria, UniProt P42212 2-238 = GFP)
T1 construct: SPR and bead assays speak only of recombinant GFP or eGFP; also called recombinant GFP; A. victoria (Av) GFP
Assay: SPR, GFP immobilized, Langmuir fit; unit inferred
Reported values of Kd for individual entries
Give the number; nM is assumed, so skip it.

Here is how some binders turned out for Kd.
{"Binder": "LaG-3 (VHH) VHH: QVQLVESGGGLVQAGGSLRVSCAASGRTYSDYAMGWFRQAPGKERDFVAGISGSGGDTYYADSVKGRFTISRDNAKNTMYLQMNSLKPEDTAVYFCAARTGTVLFTSRVDYRYWGQGTQVTV", "Unit symbol": "nM", "Numeric result": 25}
{"Binder": "LaG-9 (VHH) VHH: DVQLVESGGGLVQAGGSLRLSCAASGRTFSTSAMGWFRQAPGKEREFVARITWSAGYTAYSDSVKGRFTISRDKAKNTVYLQMNSLKPEDTAVYYCASRSAGYSSSLTRREDYAYWGQGTQVTVS", "Unit symbol": "nM", "Numeric result": 3.5}

Now consider a different binder.
Fill blank: measured Kd of the binder LaG-16 (VHH, Conjugated to Alexa Fluor 568 (succinimidyl ester, on amines) in the microscopy result. The letters are unchanged., Conjugated to Alexa Fluor 568 for microscopy) VHH: QVQLVESGGRLVQAGDSLRLSCAASGRTFSTSAMAWFRQAPGREREFVAAITWTVGNTILGDSVKGRFTISRDRAKNTVDLQMDNLEPEDTAVYYCSARSRGYVLSVLRSVDSYDYWGQGTQVTVS is ____. 0.69
